src = PubChem BioAssay (EPA / NIEHS)

Read-out: TIMP metallopeptidase inhibitor 1 (TIMP1), TIMP1 (gene 7076)
Test: BSK_hDFCGF_TIMP1: BioMAP Diversity Plus: hDFCGF Assay for TIMP metallopeptidase inhibitor 1 (TIMP1) Biomarker Activity (AID 2283062)
Conditions: primary human foreskin fibroblasts; actives raise or lower the signal
Method: BSK_hDFCGF is a cell-based, multiplexed-readout assay that uses foreskin fibroblast, a human skin primary cell, with measurements taken at 24 hours after chemical dosing in a 96-well plate.BSK_hDFCGF_TIMP1 is an assay component measured in the BSK_hDFCGF assay. It measures TIMP-1 antibody related to regulation of gene expression using ELISA technology.Data from the assay component BSK_hDFCGF_TIMP1 was analyzed into 1 assay endpoint. […]
Active and inactive are the calls of the source. How the source made its calls: active means hit-call score of the fitted dose curve at least 0.9, where 1 is the maximum; inactive means score below 0.9.
Classes used: True = active, False = inactive

1. CCc1cccc(CC)c1N    False
2. CC(C)CCCCCCOC(=O)C1CCCCC1C(=O)OCCCCCCC(C)C (configuration not stated)    False
3. CCc1ccc(O)c(C(C)(C)C)c1    True
4. CC(C)c1nnc2ccc(-c3ocnc3-c3cc(F)ccc3F)cn12    False
5. NC(=O)N(O)[C@@H]1COc2cc(OCc3ccccc3)ccc21    False
6. CCCCCCCCCCCCCCO    False
7. NNC(=O)c1ccncc1    False
8. CC[C@H](C)C(=O)O[C@H]1C[C@H](O)C=C2C=C[C@H](C)[C@H](CC[C@@H](O)C[C@@H](O)CC(=O)O)[C@H]21    False
9. OC(Cn1cncn1)(Cn1cncn1)c1ccc(F)cc1F    False
10. Cc1cccc(O)c1C    False
11. CCOc1ccc2[nH]cc(C(=O)NCc3ccccc3)c(=O)c2n1    False
12. O=S1(=O)CCCO1    False
13. CC(C)CC(C)O (configuration not stated)    False
14. NC(N)=O    False
15. FC(F)(F)C(F)(F)C(F)(F)C(F)(F)C(F)(F)C(F)(F)I    False
16. CCCc1ccccc1    False
17. CC(C)C(=O)Nc1ccc([N+](=O)[O-])c(C(F)(F)F)c1    False

====

Test system: Brachyury (BRA) Protein Expression, Deisenroth Lab, TBXT (gene 6862)
Assay: CCTE_Deisenroth_DEVTOX-GLR_Pluri_BRA: CCTE's DevTox GLR-Pluri Assay Evaluation of Brachyury (BRA) Protein Expression, Deisenroth Lab (AID 2284429)
Results filed as inconclusive are left out. Calls of active or inactive are those of the source. Rule for the calls: active = hit-call score of the fitted dose curve at least 0.9, where 1 is the maximum; inconclusive = response in the unintended direction; inactive = score below 0.9.
Outcomes: active, inactive

1) NNC(=O)c1ccncc1    inactive
2) Nc1ccn([C@@H]2O[C@H](CO)[C@@H](O)[C@@H]2O)c(=O)n1    active
3) NC(=O)N1c2ccccc2C=Cc2ccccc21    active
4) CCCC(CCC)C(=O)O    inactive

====

Read-out: Glutathione S-Transferase (GSTA2), GSTA2 (gene 2939)
Assay: LTEA_HepaRG_GSTA2: Life Technologies and Expression Analysis (LTEA) Assay for Glutathione S-Transferase (GSTA2) using HepaRG (AID 2283497)
Settings: mRNA level, 48 h; actives raise or lower the signal
Method: LTEA_HepaRG is a cell based, multiplexed-readout assay that uses HepaRG, a human liver cell line, with measurements taken at 48 hours after chemical dosing on a 96-well plate.LTEA_HepaRG_GSTA2 is one of 102 assay component(s) measured in the LTEA HepaRG cell culture assay. It is a marker of Oxidative Stress.Data from the assay component LTEA_HepaRG_GSTA2 was analyzed into 1 endpoint. […]
Activity calls are given as the source filed them. How the source made its calls: active means hit-call score of the fitted dose curve at least 0.9, where 1 is the maximum; inactive means score below 0.9.
endpoint label: outcome

1. OC[C@H]1O[C@@H]2O[C@H]3[C@H](O)[C@@H](O)[C@@H](O[C@H]4[C@H](O)[C@@H](O)[C@@H](O[C@H]5[C@H](O)[C@@H](O)[C@@H](O[C@H]6[C@H](O)[C@@H](O)[C@@H](O[C@H]7[C@H](O)[C@@H](O)[C@@H](O[C@H]1[C@H](O)[C@H]2O)O[C@@H]7CO)O[C@@H]6CO)O[C@@H]5CO)O[C@@H]4CO)O[C@@H]3CO    inactive
2. OCc1ccccc1    inactive
3. Nc1ccn([C@@H]2O[C@H](CO)[C@@H](O)[C@@H]2O)c(=O)n1    inactive

====

Test: CEETOX_H295R_MTT_cell_viability: Viability Assessment in the CeeTox HT-H295R MTT Assay (AID 2283718)
The source made the active and inactive calls. How the source made its calls: active means hit-call score of the fitted dose curve at least 0.9, where 1 is the maximum; inactive means score below 0.9.
Labels: active, inactive

1. CCn1nc(C)c2c1C(=O)NCC(c1ccc(O)cc1)=N2    inactive
2. CCOc1ccc2[nH]cc(C(=O)NCc3ccccc3)c(=O)c2n1    inactive
3. C=CCc1cc(S(=O)(=O)c2ccc(O)c(CC=C)c2)ccc1O    inactive
4. C[C@]12C=CC(=O)C=C1CC[C@H]1[C@@H]3C[C@@H](O)[C@](O)(C(=O)CO)[C@@]3(C)C[C@H](O)[C@@]12F    inactive
5. CCCCCCCCN(C)C    inactive
6. CC[C@H](C)C(=O)O[C@H]1C[C@H](O)C=C2C=C[C@H](C)[C@H](CC[C@@H](O)C[C@@H](O)CC(=O)O)[C@H]21    inactive
7. C[C@@H](Oc1ccc(CNC(=O)c2cccnc2Oc2ccc3c(c2)OCO3)c(F)c1)C(=O)O    inactive
8. CCCCCCCCCCCCCCO    inactive
9. CCCCC(CC)C(=O)OCCOCCOCCOC(=O)C(CC)CCCC (stereo not given)    inactive
10. Cc1nc(-c2ccccn2)ncc1C(=O)Nn1cc(C)c2cc(F)ccc21    active

====

Biological target: Estrogen receptor (Homo sapiens)
Assay: OT_ERa_GFPERaERE_0120: Odyssey Thera (OT) 2-hour HeLa Transcription Induction Assay for Estrogen Receptor (AID 2283382)
Calls of active or inactive are those of the source. The calls were made as follows: active = hit-call score of the fitted dose curve at least 0.9, where 1 is the maximum; inconclusive = response in the unintended direction; inactive = score below 0.9.
Classes used: Yes for active, No for inactive

1) O=C(NO)C1(NS(=O)(=O)c2ccc(Oc3ccc(F)cc3)cc2)CCOCC1    No
2) Cc1nc(-c2ccccn2)ncc1C(=O)Nn1cc(C)c2cc(F)ccc21    No
3) CCCCOC(=O)c1ccccc1    No
4) c1ccc2c(c1)-c1cccc3c1c-2cc1ccccc13    Yes
5) CCN(CC)C(=S)SSC(=S)N(CC)CC    Yes
6) OC[C@H]1O[C@@H]2O[C@H]3[C@H](O)[C@@H](O)[C@@H](O[C@H]4[C@H](O)[C@@H](O)[C@@H](O[C@H]5[C@H](O)[C@@H](O)[C@@H](O[C@H]6[C@H](O)[C@@H](O)[C@@H](O[C@H]7[C@H](O)[C@@H](O)[C@@H](O[C@H]1[C@H](O)[C@H]2O)O[C@@H]7CO)O[C@@H]6CO)O[C@@H]5CO)O[C@@H]4CO)O[C@@H]3CO    No
7) Nc1ccn([C@@H]2O[C@H](CO)[C@@H](O)[C@@H]2O)c(=O)n1    Yes
8) Cc1cccc(O)c1C    No
9) O=C(O)CO    No
10) CCCC(CCC)C(=O)O    No
11) CCCCN1C(=O)[C@@H]([C@H](O)C2CCCCC2)NC(=O)C12CCN(Cc1ccc(Oc3ccc(C(=O)O)cc3)cc1)CC2    No
12) CC(C)c1nnc2ccc(-c3ocnc3-c3cc(F)ccc3F)cn12    No
13) CC(=O)c1ccccc1    No
14) c1ccc2ncccc2c1    No
15) OC(Cn1cncn1)(Cn1cncn1)c1ccc(F)cc1F    No
16) OCCOCCOCCO    No
17) OCC(CO)(CO)CO    No
18) NNC(=O)c1ccncc1    No
19) Cn1c(=O)c2[nH]cnc2n(C)c1=O    No
20) CCCCCCCCCC    No
21) C[C@@H](Oc1ccc(CNC(=O)c2cccnc2Oc2ccc3c(c2)OCO3)c(F)c1)C(=O)O    No
22) CC1(C)C(=O)N(Cl)C(=O)N1Cl    No
23) O=S1(=O)CCCO1    No
24) CCCCCCCC1CCC(=O)O1 (centres undefined)    No
25) Cc1ccc(S(=O)(=O)NC(=O)NN2CCCCCC2)cc1    No
26) CCOC(N)=O    No
27) c1ccc2cc3ccccc3cc2c1    No
28) NC(N)=O    No
29) CC(C)C(=O)Nc1ccc([N+](=O)[O-])c(C(F)(F)F)c1    No

====

Read-out: Vascular cell adhesion molecule 1 (VCAM1), VCAM1 (gene 7412)
Assay: BSK_BF4T_VCAM1: BioMAP Diversity Plus: BF4T Assay for Vascular cell adhesion molecule 1 (VCAM1) Biomarker Activity (AID 2284249)
Conditions: primary human bronchial epithelial cells with fibroblasts
Procedure: BSK_BF4T is a cell-based, multiplexed-readout assay that uses bronchial epithelial cells and dermal fibroblasts, a human vascular primary cell, with measurements taken at 24 hours after chemical dosing in a microplate: 96-well plate.BSK_BF4T_VCAM1 is an assay component measured in the BSK_BF4T assay. […] The levels of cell surface (or secreted, indicated by the prefix "s") biomarker endpoints were measured by ELISA. […] Plates were read after 6 h.
Active and inactive are the calls of the source. How the source made its calls: active means hit-call score of the fitted dose curve at least 0.9, where 1 is the maximum; inactive means score below 0.9.
endpoint label: outcome

1. O=S(=O)(O)CCC(F)(F)C(F)(F)C(F)(F)C(F)(F)C(F)(F)C(F)(F)F    inactive
2. FC(F)(F)C(F)(F)C(F)(F)C(F)(F)C(F)(F)C(F)(F)I    inactive
3. O=C(Cl)C(F)(F)C(F)(F)C(F)(F)C(=O)Cl    inactive
4. FC(F)(F)COC(OCC(F)(F)F)OCC(F)(F)F    inactive
5. OC(O)(C(F)C(O)(O)C(F)(F)F)C(F)(F)F    inactive
